Origin of values: the RNAGym collection of RNA variant scans (doi:10.1073/pnas.2313332121)

B1: TPR t1 (parent)
chain: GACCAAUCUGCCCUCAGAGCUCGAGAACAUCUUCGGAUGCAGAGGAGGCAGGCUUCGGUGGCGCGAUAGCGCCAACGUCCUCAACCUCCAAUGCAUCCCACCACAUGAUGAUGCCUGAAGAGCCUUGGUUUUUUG

# Variants of: B1
# measurement_notes: polymerase ribozyme fitness, log enrichment relative to wild type (log ratio); higher = more active; in vitro selection for triplet polymerase activity
Entries and their polymerase ribozyme fitness (log ratio)
value_type: polymerase ribozyme fitness (log ratio)

• A2U C12U G110A U129C = -1.58
• C13A A29G = -3.22
• G61C U78G U112A G128A = -6.61
• A5U C13G A75C C76A = -1.8
• C82A C99U = -4.04
• U7G G71C = -0.641
• A18C C82A A84U = -3.72
• G47C C102A G120U = -3.97
• C3A U38A A121C U129A = -0.064
• U9A A91G = -0.793
• G48A C72A C115A = -0.421
